Hello, the source for this data is the supplement of paper PMC6757056, in case you need it.

B1: library; a variant is named by its letters at N, in order (parent)
chain: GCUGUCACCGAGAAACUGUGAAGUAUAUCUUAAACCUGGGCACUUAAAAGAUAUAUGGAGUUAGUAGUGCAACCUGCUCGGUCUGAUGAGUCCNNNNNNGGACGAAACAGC

- Variants of: B1
- assay_procedure: FACS-Seq fitted mean relative fluorescence mCherry/BFP without ligand (log10 relative fluorescence); HEK293T; ligand: cyclic di-GMP (c-di-GMP-II aptamer); higher = higher reporter protein expression
- measurement_conditions: ligand present: no
Label T for high-side FACS-Seq fitted mean (log10) (at or above -0.01) and F for low-side FACS-Seq fitted mean (log10) (below it).

Solved cases (3 shown):
# variant_description, cat
rows = [
    ("GUAUCA", "F"),
    ("UACUUU", "F"),
    ("CGCUCU", "F"),
]

Confirm if FACS-Seq fitted mean (log10) reported for the variant AGCCUU is -0.01 or above.
T

Confirm if FACS-Seq fitted mean (log10) reported for the variant AGGAGA is -0.01 or above.
F

Confirm if FACS-Seq fitted mean (log10) reported for the variant AGAAUU is -0.01 or above.
T
